Where do these numbers come from? They come from ChEMBL document CHEMBL4002591.

STUDY SYSTEM: Protein mono-ADP-ribosyltransferase PARP16 (Homo sapiens, UniProt Q8N5Y8)
Sequence (Q8N5Y8 whole entry): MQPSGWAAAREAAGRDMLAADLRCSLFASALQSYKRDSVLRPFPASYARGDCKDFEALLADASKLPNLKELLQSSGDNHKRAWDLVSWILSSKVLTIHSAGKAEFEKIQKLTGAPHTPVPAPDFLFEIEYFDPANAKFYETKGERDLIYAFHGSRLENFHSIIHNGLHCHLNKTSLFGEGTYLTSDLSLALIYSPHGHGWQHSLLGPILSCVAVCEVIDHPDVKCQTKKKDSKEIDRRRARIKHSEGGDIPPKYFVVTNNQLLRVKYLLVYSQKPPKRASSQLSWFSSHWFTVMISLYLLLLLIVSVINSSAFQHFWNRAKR
ATTRIBUTE MEASURED: IC50

Enquiry: Consider the compound `O=C(CCc1nc2ccccc2c(=O)[nH]1)Nc1ccc(C(=O)Nc2cccc3cccnc23)cc1` . State its measured IC50.
Return: > 100 µM
